Each entry below carries its recorded TGI.
System: MDA-N
Assay: NCI tumour cell line growth inhibition, 48 h
REPORTED PROPERTY: TGI

COMPOUND: C/C=C/OC1C(C2COC(C)(C)O2)OC2OC(C)(C)OC21 (stereo unspecified)
ASSAYED TARGET: MDA-N
REPORTED PROPERTY: TGI
OBSERVED RESULT: > 100 µM
--
COMPOUND: N#Cc1nsnc1-c1nc(-c2nsnc2C#N)nc(-c2nsnc2C#N)n1
ASSAYED TARGET: MDA-N
REPORTED PROPERTY: TGI
OBSERVED RESULT: > 100 µM
--
COMPOUND: CCCCCC(/C=N/NC(N)=S)C(O)(C(F)(F)F)C(F)(F)F (stereo unspecified)
ASSAYED TARGET: MDA-N
REPORTED PROPERTY: TGI
OBSERVED RESULT: > 10 µM
--
COMPOUND: COc1ccc(CN=C2Nc3ccncc3S(=O)(=O)N2c2ccccc2)cc1
ASSAYED TARGET: MDA-N
REPORTED PROPERTY: TGI
OBSERVED RESULT: > 100 µM
--
COMPOUND: Cn1c(=O)c2[nH]c(COCc3nc4c([nH]3)c(=O)n(C)c(=O)n4C)nc2n(C)c1=O
ASSAYED TARGET: MDA-N
REPORTED PROPERTY: TGI
OBSERVED RESULT: > 100 µM
--
COMPOUND: CSc1nc(-c2cc3c(c(SC)n2)CCC3)cc2c1CCC2
ASSAYED TARGET: MDA-N
REPORTED PROPERTY: TGI
OBSERVED RESULT: > 100 µM
--
COMPOUND: CC(=O)NC1CCC(NC(=O)OC(C)(C)C)C(NC(=O)OC(C)(C)C)C1 (stereo unspecified)
ASSAYED TARGET: MDA-N
REPORTED PROPERTY: TGI
OBSERVED RESULT: > 100 µM
--
COMPOUND: COc1ccc(/C=N/n2c(Cc3ccc(Cl)cc3)n[nH]c2=O)cc1
ASSAYED TARGET: MDA-N
REPORTED PROPERTY: TGI
OBSERVED RESULT: > 100 µM
--
COMPOUND: COC[C@H]1OC(=O)c2coc3c2[C@@]1(C)C1=C(C3=O)[C@@H]2CCC(=O)[C@@]2(C)C[C@H]1OC(C)=O
ASSAYED TARGET: MDA-N
REPORTED PROPERTY: TGI
OBSERVED RESULT: > 100 µM
--
COMPOUND: COc1cccc2c1C(=O)c1ccc3cc(CO)cc(O)c3c1C2=O
ASSAYED TARGET: MDA-N
REPORTED PROPERTY: TGI
OBSERVED RESULT: 0.352 µM
--
COMPOUND: CSc1cc(Cl)c(C)cc1S(=O)(=O)NC(=O)NNc1ccccn1
ASSAYED TARGET: MDA-N
REPORTED PROPERTY: TGI
OBSERVED RESULT: > 100 µM
--
COMPOUND: Cc1ccnc2c1c(=O)c1ccccc1n2C
ASSAYED TARGET: MDA-N
REPORTED PROPERTY: TGI
OBSERVED RESULT: > 100 µM
--
COMPOUND: CC(C)(C)OC(=O)/C=C/C(=O)O/C=C/[N+](=O)[O-]
ASSAYED TARGET: MDA-N
REPORTED PROPERTY: TGI
OBSERVED RESULT: > 100 µM
--
COMPOUND: Cc1ccc(NNc2cc(=O)[nH]c(=O)[nH]2)cc1Cl
ASSAYED TARGET: MDA-N
REPORTED PROPERTY: TGI
OBSERVED RESULT: 28.6 µM
--
COMPOUND: CCO[C@H]1C[C@@H](c2ccccc2)[C@]2(C)C[C@H](C(=O)OC)ON2O1
ASSAYED TARGET: MDA-N
REPORTED PROPERTY: TGI
OBSERVED RESULT: > 100 µM
--
COMPOUND: C=CC1(CBr)CCC(C(C)(C)Br)O1 (stereo unspecified)
ASSAYED TARGET: MDA-N
REPORTED PROPERTY: TGI
OBSERVED RESULT: 22.7 µM
--
COMPOUND: NC1CCC[C@@H](O)[C@H]1O (stereo partly specified)
ASSAYED TARGET: MDA-N
REPORTED PROPERTY: TGI
OBSERVED RESULT: > 100 µM
--
COMPOUND: COc1ccccc1/C=C1/Sc2scc(CC(=O)Nc3ccccc3)[n+]2C1=O
ASSAYED TARGET: MDA-N
REPORTED PROPERTY: TGI
OBSERVED RESULT: 69.9 µM
--
COMPOUND: COc1cc2cnc3c(c2cc1OC)Cc1cc2c(cc1-3)OCO2
ASSAYED TARGET: MDA-N
REPORTED PROPERTY: TGI
OBSERVED RESULT: > 100 µM
--
COMPOUND: CNC1NC(=O)c2ccccc2N1Cc1ccc(F)cc1 (stereo unspecified)
ASSAYED TARGET: MDA-N
REPORTED PROPERTY: TGI
OBSERVED RESULT: > 100 µM
--
COMPOUND: CCc1oc2ccccc2c1C(=O)c1cc(Br)c(O)c(Br)c1
ASSAYED TARGET: MDA-N
REPORTED PROPERTY: TGI
OBSERVED RESULT: > 100 µM
